Reference for the values: patent US11773127B2

Assay system: FmlHLD (Escherichia coli, UniProt P77588)
Construct: 6xHis (C); made in house; host or cells: E. coli C600, periplasm, pTRC99a
Sequence (P77588 25-182): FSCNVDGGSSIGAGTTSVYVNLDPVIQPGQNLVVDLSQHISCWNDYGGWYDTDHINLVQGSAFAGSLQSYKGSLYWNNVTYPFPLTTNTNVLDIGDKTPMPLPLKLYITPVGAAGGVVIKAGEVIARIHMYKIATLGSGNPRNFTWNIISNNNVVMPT
Assay comment: biochemical
Assay type: binding, E. coli
Assay context: read-out: PI1 (percent inhibition), galactoside at 1 μM; mean with standard error of the mean
Procedure: Thereafter, wells were incubated with 200 μl blocking buffer (PBS+1% BSA) for 2 hours at 23° C., followed by incubation with 100 μl biotinylated FmlHLD diluted in blocking buffer to 20 μg/ml in the presence or absence of the tested compounds for 1 hr at 23° C. […] After a final round of washing, plates were developed with 100 μl Tetramethylbenzidine (TMB, BD Biosciences) substrate, quenched within 1-2 min with 50 μl […], and absorbance measured at 450 nm. […]
# inhibition at 1 µM binned as bin 1 = under 8%, bin 2 = from 8% up to 10%, bin 3 = 10% and over

Molecule | Class
Cc1ccc(O[C@@H]2O[C@H](CO)[C@H](O)[C@H](O)[C@H]2O)cc1 [Compound 8β, 4-methylphenyl β-D-galactopyranoside] | bin 1
COC(=O)c1cccc(-c2ccccc2O[C@@H]2O[C@H](CO)[C@H](O)[C@H](O)[C@H]2O)c1 | bin 1
OC[C@H]1O[C@@H](Oc2cccc3cccnc23)[C@H](O)[C@@H](O)[C@H]1O | bin 3
N#Cc1ccc(O[C@@H]2O[C@H](CO)[C@H](O)[C@H](O)[C@H]2O)cc1 [Compound 9β, 4-cyanophenyl β-D-galactopyranoside] | bin 2
O=C(O)c1cccc(-c2ccccc2O[C@@H]2O[C@H](CO)[C@H](O)[C@H](O)[C@H]2O)c1 | bin 3
N#Cc1ccccc1O[C@@H]1O[C@H](CO)[C@H](O)[C@H](O)[C@H]1O [Compound 3β, 2-cyanophenyl α/β-D-galactopyranoside] | bin 3
Cc1cc(=O)oc2cc(O[C@@H]3O[C@H](CO)[C@H](O)[C@H](O)[C@H]3O)ccc12 | bin 2
CC(=O)N[C@H]1[C@H](Oc2ccccc2-c2cccc(C(=O)O)c2)O[C@H](CO)[C@H](O)[C@@H]1O | bin 3
CC(=O)N[C@H]1[C@H](Oc2ccccc2[N+](=O)[O-])O[C@H](CO)[C@H](O)[C@@H]1O | bin 3

Continue with the next molecule.
Problem: Band for the recorded inhibition at 1 µM of Cc1ccccc1O[C@@H]1O[C@H](CO)[C@H](O)[C@H](O)[C@H]1O [Compound 2β, 2-Methylphenyl α/β-D-Galactopyranoside] ?
Solution: bin 1

---

Assay system: FmlHLD (Escherichia coli, UniProt P77588)
Construct: 6xHis (C); made in house; host or cells: E. coli C600, periplasm, pTRC99a
Assay comment: biochemical
Assay type: binding, E. coli
Assay context: read-out: % Inhibition at [μM] [100], compound at 100 μM; inhibition of FmlHLD binding to ds-BSM
Measured endpoint: inhibition at 100 µM
Note: state the figure and append the unit.

Compound | inhibition at 100 µM
OC[C@H]1O[C@H](Oc2cccc3ccccc23)[C@H](O)[C@@H](O)[C@H]1O [Compound 115af1] | 28.1%
O=c1c(O[C@@H]2O[C@H](CO)[C@H](O)[C@H](O)[C@H]2O)c(-c2cc(O)c(O)c(O)c2)oc2cc(O)cc(O)c12 [MyrG, reference compound] | 10.8%
CC(=O)N[C@H]1[C@H](Oc2ccccc2[N+](=O)[O-])O[C@H](CO)[C@H](O)[C@@H]1O [ONPG-NAc] | 99.4%

From here, focus on the item given below.
Problem: Quote inhibition at 100 µM reported for Cc1ccc(O[C@@H]2O[C@H](CO)[C@H](O)[C@H](O)[C@H]2O)cc1 [Compound 153a] please.
Solution: 85.8%
